Origin of the recorded values: ChEMBL document CHEMBL1134010

Measured MIC, listed per entry.
- Test system: Candida albicans
- experiment-summary: In vitro minimum inhibitory concentration (MIC) against Candida albicans.
- Type: functional
assay-readout: MIC (µg/mL)

| smi | unit-name | recorded-measurement |
| --- | --- | --- |
| C/C=C1\NC(=O)[C@H]([C@H](C)O)NC(=O)[C@H](CCN)NC(=O)[C@H](CCCCN)NC(=O)[C@H](CC(=O)NCCCN(C)C)NC(=O)[C@@H](CCN)NC(=O)[C@@H](NC(=O)C[C@H](O)CCCCCCCCCCC)COC(=O)[C@H]([C@H](O)CCl)NC(=O)[C@H]([C@H](O)C(=O)O)NC1=O | µg/mL | 10 |
| C/C=C1\NC(=O)[C@H]([C@H](C)O)NC(=O)[C@H](CCN)NC(=O)[C@H](CCCCN)NC(=O)[C@H](CC(=O)NC)NC(=O)[C@@H](CCN)NC(=O)[C@@H](NC(=O)C[C@H](O)CCCCCCCCCCC)COC(=O)[C@H]([C@H](O)CCl)NC(=O)[C@H]([C@H](O)C(=O)O)NC1=O | µg/mL | 5 |
| C/C=C1\NC(=O)[C@H]([C@H](C)O)NC(=O)[C@H](CCN)NC(=O)[C@H](CCCCN)NC(=O)[C@H](CC(=O)NCCCCCCCC)NC(=O)[C@@H](CCN)NC(=O)[C@@H](NC(=O)C[C@H](O)CCCCCCCCCCC)COC(=O)[C@H]([C@H](O)CCl)NC(=O)[C@H]([C@H](O)C(=O)O)NC1=O | µg/mL | 20 |
